Reported fluorescence lifetime values for a set of compounds
# EXPERIMENT_DESCRIPTION: Fluorescence lifetime
# Assay type: physicochemical
# SETUP_CONDITIONS: in acetonitrile
Kindly answer with a numeric value in ns, unit omitted.

Consider the worked cases shown below.
INSERT INTO measurements (compound, recorded_measurement) VALUES
  ('CC[N+](CC)=c1ccc2c(P(=O)(OC)OC)c3c(oc-2c1)-c1ccc(N(C)C)cc1CC3.O=C([O-])C(F)(F)F', 1.50),
  ('CCN(CC)c1ccc2c(P(=O)(O)O)c(-c3nc4ccccc4s3)c(=O)oc2c1', 2.91);

Proceeding to the next compound to report its fluorescence lifetime.
Query string: Please report the recorded fluorescence lifetime for COP(=O)([c+]1c2ccc(N(C)C)cc2sc2cc(N(C)C)ccc21)N(C(C)C)C(C)C.O=C([O-])C(F)(F)F (stereo not drawn) .
Result string: 0.77

====

# EXPERIMENT_DESCRIPTION: Absorption spectroscopy (UV/Vis)
# Assay type: physicochemical
# SETUP_CONDITIONS: in methanol
# Protocol: Absorption spectra were recorded with a Varian Cary 4000 UV-Vis double-beam spectrophotometer (Agilent Technologies, USA). For the determination of the absorption spectra, quartz cells with a 1 cm path length were used. Emission spectra and fluorescence quantum yield were obtained on a Quantaurus-QY Absolute PL quantum yield spectrometer C11347 (Hamamatsu Photonics, Japan) or on a Varian Cary Eclipse fluorescence spectrometer (Agilent Technologies, USA).
Where a name gives a salt, the structure may show the parent alone.
Reported ε at absorption max. values for a set of molecules
Kindly answer with a numeric value in M⁻¹ cm⁻¹, unit omitted.

INSERT INTO assay_data (molecule, unit_symbol, recorded_measurement) VALUES
  ('CN(C)c1ccc2c(c1)-c1cccc3c(N(C)C)ccc(c13)C2.[O-][Cl+3]([O-])([O-])O [Compound 28d]', 'M⁻¹ cm⁻¹', 23000),
  ('CN(C)c1ccc2c(P(=O)(Oc3ccccc3C(=O)[O-])N(C)C)c3ccc(=[N+](C)C)cc-3oc2c1 (stereo not shown)', 'M⁻¹ cm⁻¹', 49000);

Query string: Please report the recorded ε at absorption max. for COP(=O)(OC)c1c2ccc(N(C)C)cc2[n+](C)c2cc(N(C)C)ccc12 [Compound 22, trifluoroacetate] .
Result string: 43000

Query string: And for `CN(C)c1ccc2c([PH](=O)O)c3ccc(N(C)C)cc3[n+](CCCC(=O)O)c2c1.O=C([O-])C(F)(F)F` ?
Result string: 67000

====

Reported QY (fluorescence quantum yield, Φfl) values for a set of molecules
# EXPERIMENT_DESCRIPTION: Emission spectra and fluorescence quantum yield
# Format: physicochemical
# SETUP_CONDITIONS: in acetonitrile
# Procedure: Absorption spectra were recorded with a Varian Cary 4000 UV-Vis double-beam spectrophotometer (Agilent Technologies, USA). For the determination of the absorption spectra, quartz cells with a 1 cm path length were used. Emission spectra and fluorescence quantum yield were obtained on a Quantaurus-QY Absolute PL quantum yield spectrometer C11347 (Hamamatsu Photonics, Japan) or on a Varian Cary Eclipse fluorescence spectrometer (Agilent Technologies, USA).
Where a name gives a salt, the structure may show the parent alone.
Answer field: number only, no words.

INSERT INTO measurements (molecule, property_measured, recorded_measurement) VALUES
  ('COP(=O)(c1c2ccc(N(C)C)cc2[o+]c2cc(N(C)C)ccc12)N(C(C)C)C(C)C.O=C([O-])C(F)(F)F (stereo not shown) [Compound 7]', 'QY (fluorescence quantum yield, Φfl)', 0.39),
  ('CCN(CC)c1ccc2c(P(=O)(OC)OC)c(-c3nc4ccccc4s3)c(=O)oc2c1 [Compound 1]', 'QY (fluorescence quantum yield, Φfl)', 0.20),
  ('CCOP(=O)(CC(=O)[O-])c1c2ccc(N(C)C)cc2[o+]c2cc(N(C)C)ccc12 (stereo not shown) [Compound 14]', 'QY (fluorescence quantum yield, Φfl)', 0.32),
  ('CN(C)c1ccc2c(P(=O)(c3ccccc3)c3ccccc3)c3ccc(N(C)C)cc3[o+]c2c1.O=C([O-])C(F)(F)F [Compound 8]', 'QY (fluorescence quantum yield, Φfl)', 0.35),
  ('C=CCOP(=O)(C1=c2cc3c(cc2C(C)(C)c2cc4c(cc21)CCCN4CCOC)=[N+](CCOC)CCC3)N(C(C)C)C(C)C (stereo not shown) [Compound 26, trifluoroacetate]', 'QY (fluorescence quantum yield, Φfl)', 0.08);

Proceeding to the next molecule to report its QY (fluorescence quantum yield, Φfl).
Query string: Please report the recorded QY (fluorescence quantum yield, Φfl) for COP(=O)(C1=c2cc3c4c(c2Oc2c1cc1c5c2CCCN5CCC1)CCC[N+]=4CCC3)N(C(C)C)C(C)C (stereo not shown) [Compound 17, trifluoroacetate] .
Result string: 0.25
